ASSAY_NAME: Clearance in Beagle dog at 0.25 mg/kg, iv measured after 24 hrs by LC-MS/MS analysis
Assay type: ADME, organism-based, Canis lupus familiaris
CONDITIONS_USED: in vivo
MEASURED_QUANTITY: clearance (mL/min/kg)
Enter your answer as a number in mL/min/kg; do not include the unit.

I have this molecule here, CN1C(=O)c2c(O)c(=O)ccn2N2[C@H](c3ccccc3)c3cc(F)c(F)cc3OCC[C@@H]12 , and I need its recorded clearance.
20.8

====

ASSAY_NAME: Protein binding in cynomolgus monkey plasma assessed as unbound fraction at 400 uM incubated for 4 hrs by LC-MS/MS analysis
Type: ADME, cell-free, Macaca fascicularis
MEASURED_QUANTITY: fraction unbound at 4 h, 400 µM
API doc: respond with a numeric literal and nothing else, no unit.

I have this compound here, CN1C(=O)c2c(O)c(=O)ccn2N2[C@H](c3ccccc3)c3cc(F)c(F)cc3OCC[C@@H]12 , and I need its recorded fraction unbound at 4 h, 400 µM.
0.382

====

ASSAY_NAME: AUC (0 to last) in cynomolgus monkey at 0.25 mg/kg, iv measured after 24 hrs by LC-MS/MS analysis
Assay type: ADME, organism-based, Macaca fascicularis
CONDITIONS_USED: in vivo
MEASURED_QUANTITY: AUC(0-t) at 24 h (µM·h)
Enter your answer as a number in µM·h; do not include the unit.

I have this molecule here, CN1C(=O)c2c(O)c(=O)ccn2N2[C@H](c3ccccc3)c3cc(F)c(F)cc3OCC[C@@H]12 , and I need its recorded AUC(0-t) at 24 h.
0.458

====

ASSAY_NAME: Metabolic stability in human liver microsomes assessed as intrinsic clearance at 1 uM measured upto 60 mins in presence of NADPH by LC-MS/MS analysis
Type: ADME, Microsome
CONDITIONS_USED: 1 h
Measured CLint accompanies every entry in the list below.

>>> result("CN1C(=O)c2c(O)c(=O)ccn2N2[C@H](c3ccccc3)c3cc(F)c(F)cc3OCC[C@@H]12")
"< 8.6 µL/min/mg"

I have this molecule here, O=C1c2c(O)c(=O)ccn2N([C@@H]2c3ccccc3SCc3c2ccc(F)c3F)[C@@H]2COCCN12 , and I need its recorded CLint.
< 8.6 µL/min/mg

====

ASSAY_NAME: Half-life in BALB/c mouse at 2 mg/kg, iv measured after 24 hrs by LC-MS/MS analysis
Assay type: ADME, organism-based
CONDITIONS_USED: in vivo
MEASURED_QUANTITY: half-life (h)
Enter your answer as a number in h; do not include the unit.

>>> quantitative_readout("CN1C(=O)c2c(O)c(=O)ccn2N2[C@H](c3ccccc3)c3cc(F)c(F)cc3OCC[C@@H]12")
1.2

I have this compound here, O=C1c2c(O)c(=O)ccn2N([C@@H]2c3ccccc3SCc3c2ccc(F)c3F)[C@@H]2COCCN12 , and I need its recorded half-life.
3.9

====

ASSAY_NAME: AUC (0 to last) in BALB/c mouse at 2 mg/kg, iv measured after 24 hrs by LC-MS/MS analysis
Format: ADME, organism-based
CONDITIONS_USED: in vivo
MEASURED_QUANTITY: AUC(0-t) at 24 h (µM·h)
Enter your answer as a number in µM·h; do not include the unit.

>>> quantitative_readout("CN1C(=O)c2c(O)c(=O)ccn2N2[C@H](c3ccccc3)c3cc(F)c(F)cc3OCC[C@@H]12")
1.32

I have this compound here, O=C1c2c(O)c(=O)ccn2N([C@@H]2c3ccccc3SCc3c2ccc(F)c3F)[C@@H]2COCCN12 , and I need its recorded AUC(0-t) at 24 h.
1.35

====

Measured fraction unbound at 4 h, 400 µM accompanies every entry in the list below.
ASSAY_NAME: Protein binding in mouse plasma assessed as unbound fraction at 400 uM incubated for 4 hrs by LC-MS/MS analysis
Assay type: ADME, cell-free

>>> result("CN1C(=O)c2c(O)c(=O)ccn2N2[C@H](c3ccccc3)c3cc(F)c(F)cc3OCC[C@@H]12")
0.122

Then there is this molecule:
I have this molecule here, O=C1c2c(O)c(=O)ccn2N([C@@H]2c3ccccc3SCc3c2ccc(F)c3F)[C@@H]2COCCN12 [BALOXAVIR] , and I need its recorded fraction unbound at 4 h, 400 µM.
0.153

====

ASSAY_NAME: Clearance in cynomolgus monkey at 0.25 mg/kg, iv measured after 24 hrs by LC-MS/MS analysis
Type: ADME, organism-based, Macaca fascicularis
CONDITIONS_USED: in vivo
MEASURED_QUANTITY: clearance
Answer format reminder: number followed by unit.

I have this molecule here, CN1C(=O)c2c(O)c(=O)ccn2N2[C@H](c3ccccc3)c3cc(F)c(F)cc3OCC[C@@H]12 , and I need its recorded clearance.
1.25 L/h/kg

====

Tested on: Influenza A virus
ASSAY_NAME: Antiviral activity against Influenza A virus A/PR/8/34 (H1N1) infected in MDCK cells assessed as reduction in virus-induced cytopathic effect incubated for 5 days by CCK8 based microplate spectrophotometric analysis
Assay type: functional, organism-based
CONDITIONS_USED: 120 h, time 5 day
MEASURED_QUANTITY: EC90 (nM)
Enter your answer as a number in nM; do not include the unit.

Here are 4 compounds together with their reported answers.
>>> quantitative_readout("CN1C(=O)c2c(O)c(=O)ccn2N2[C@H](c3ccc(F)c(F)c3)c3cc(F)c(F)cc3OCC[C@@H]12")
42
>>> quantitative_readout("O=C1c2c(O)c(=O)ccn2N2[C@H](c3ccccc3)c3ccccc3OCC[C@H]2N1C1CCC1 (racemic)")
120
>>> quantitative_readout("O=C1c2c(O)c(=O)ccn2N([C@@H]2c3ccccc3SCc3c2ccc(F)c3F)[C@@H]2COCCN12")
4.6
>>> quantitative_readout("CN1C(=O)c2c(O)c(=O)ccn2N2[C@H](c3ccccc3)c3ccccc3OCC[C@@H]12")
26

Then there is this compound:
I have this compound here, CN1C(=O)c2c(O)c(=O)ccn2N2[C@H](c3ccc(F)cc3)c3cc(F)c(F)cc3OCC[C@@H]12 , and I need its recorded EC90.
24

====

ASSAY_NAME: Half-life in cynomolgus monkey at 0.25 mg/kg, iv measured after 24 hrs by LC-MS/MS analysis
Assay type: ADME, organism-based, Macaca fascicularis
CONDITIONS_USED: in vivo
MEASURED_QUANTITY: half-life (min)
Enter your answer as a number in min; do not include the unit.

I have this compound here, CN1C(=O)c2c(O)c(=O)ccn2N2[C@H](c3ccccc3)c3cc(F)c(F)cc3OCC[C@@H]12 , and I need its recorded half-life.
132

====

ASSAY_NAME: Clearance in BALB/c mouse at 2 mg/kg, iv measured after 24 hrs by LC-MS/MS analysis
Format: ADME, organism-based
CONDITIONS_USED: in vivo
MEASURED_QUANTITY: clearance (mL/min/kg)
Enter your answer as a number in mL/min/kg; do not include the unit.

>>> quantitative_readout("O=C1c2c(O)c(=O)ccn2N([C@@H]2c3ccccc3SCc3c2ccc(F)c3F)[C@@H]2COCCN12")
61.6

Then there is this compound:
I have this compound here, CN1C(=O)c2c(O)c(=O)ccn2N2[C@H](c3ccccc3)c3cc(F)c(F)cc3OCC[C@@H]12 , and I need its recorded clearance.
57.4

====

ASSAY_NAME: Half-life in Beagle dog at 0.25 mg/kg, iv measured after 24 hrs by LC-MS/MS analysis
Assay type: ADME, organism-based, Canis lupus familiaris
CONDITIONS_USED: in vivo
MEASURED_QUANTITY: half-life (min)
Enter your answer as a number in min; do not include the unit.

I have this molecule here, CN1C(=O)c2c(O)c(=O)ccn2N2[C@H](c3ccccc3)c3cc(F)c(F)cc3OCC[C@@H]12 , and I need its recorded half-life.
156

====

ASSAY_NAME: AUC (0 to last) in Beagle dog at 0.25 mg/kg, iv measured after 24 hrs by LC-MS/MS analysis
Type: ADME, organism-based, Canis lupus familiaris
CONDITIONS_USED: in vivo
MEASURED_QUANTITY: AUC(0-t) at 24 h (µM·h)
Enter your answer as a number in µM·h; do not include the unit.

I have this compound here, CN1C(=O)c2c(O)c(=O)ccn2N2[C@H](c3ccccc3)c3cc(F)c(F)cc3OCC[C@@H]12 , and I need its recorded AUC(0-t) at 24 h.
0.576

====

ASSAY_NAME: Volume of distribution at steady state in cynomolgus monkey at 0.25 mg/kg, iv measured after 24 hrs by LC-MS/MS analysis
Format: ADME, organism-based, Macaca fascicularis
CONDITIONS_USED: in vivo, read-out: Vdss
MEASURED_QUANTITY: Vd (L/kg)
Enter your answer as a number in L/kg; do not include the unit.

I have this molecule here, CN1C(=O)c2c(O)c(=O)ccn2N2[C@H](c3ccccc3)c3cc(F)c(F)cc3OCC[C@@H]12 , and I need its recorded Vd.
3.68
